Assay: yeast display, Sf9 membrane polyspecificity reagent, FACS + sequencing; frameworks hold sequencing errors
measured-parameter: polyreactivity (PSR sort gate)

Request the reported polyreactivity (PSR sort gate) associated with `QVQLVESGGGLVQPGGSLRLSCAASGGIFRSYAMGSYRQAPGKERELVAVITKSGGDTYYADSVKGRFTISRDNAKNTVYLQMNRVKPVDTAVYYCAAVYGYYTYWIPGFTWAVDYWGQGTQVTVSS`
low polyreactivity

Request the reported polyreactivity (PSR sort gate) associated with `QDQLVESGGGLVQAGGSLRLSCAASGFTFGYYAMGWYRQAPGKERELVAAISTRGTSTYYADSVKGRFTISRDNAKNTVYLQMNSLKPEDTAVYYCARDKATDHGYNEFDYWGQGTQVTVSS`
low polyreactivity

Request the reported polyreactivity (PSR sort gate) associated with `QVQLVESGGGLVQAGGSLRLSCAASGRTSRSYTMGWYRQAPGKERELVAAITRGGRTYYADSVKGRFTISRDNAMNTVYLQMNSLKPEDTAVYYCATDRVQSYGYWGQGTQVTVSS`
low polyreactivity

Request the reported polyreactivity (PSR sort gate) associated with `QVQLVESGAGLVQAGGSLRLSCAASGSIFWWNALGWYRQAPGKQRELVAAINWSTGRTYYADSVKGRFTISRDNAKNTVYLQMISLKPEDTAVYYCAACFVGDLGYEYWGQGTQVTVSS`
low polyreactivity

Below are some sequences; for each one, tell me its polyreactivity (PSR sort gate).
1. QVQLVESGGGLVQAGGSLRLSCAASGFTFSWYAMGWYRQAPGKERELVAAINADGGTTYYADSVKGRFTISRDNAKNTVYLQMNRLKPEDTAVYYCAAELSVDKYDYWGQGTQVTVSS
2. QVQQQQSGGGLVQAGGSLSLSCAASGTIFQLTVMGRYRQAPGKERELVASIDYGGNTNYADSVKGRFTISRDNAKNTVYLQMNSLKPEDTEVYYCAASSDTWTTHPFWGQGTQVTVSS
3. QDQLVESGGGLVQAGGSLRLSCAASGSIFYRNAMGWYRQAPGKERELVAAITRGGITNYADSVKGRFTISRDNAKNTVYLQMNSLKPEDTAVYYCPRVPGRTTQYDYWGQGTQVTVSS

1: low polyreactivity; 2: low polyreactivity; 3: low polyreactivity

----------
Experiment: yeast display, Sf9 membrane polyspecificity reagent, FACS + sequencing; frameworks hold sequencing errors
measured-parameter: polyreactivity (PSR sort gate)

Request the reported polyreactivity (PSR sort gate) associated with `QVQLVESGGGLVQGGGSLRLSCDASGCNFRKNAMGWYRQAPGKERDLVAAISWDGDNTYADSVKGRFTISRDNAMNNVYLQLYSLKPVYTAVSYCAAETFTYYDYWGQGTQVNVSS`
high polyreactivity

Request the reported polyreactivity (PSR sort gate) associated with `QVQLVESGGGLDQAGVRLRLSCAASGRIFISYAMGWYRQAPGNDTELVARISTRGGSTYYADSVKGRFTISRDNAKNTVYLQMNSLKPDDTAVYYCAADHHFCQYPGGGNRWYYYWGQGTHVTVSS`
high polyreactivity

Request the reported polyreactivity (PSR sort gate) associated with `QVQLVESGGGLVQAGGSLRLSCAASGSNFETNSMGGYRQAPGQERELVAVIWRGASTYYADSVKARFTISRDNAKNTVNLQMNSLKPDDTAVYYCNARPAYAGRYAYTRYYWGQGTQVTVSS`
low polyreactivity

Request the reported polyreactivity (PSR sort gate) associated with `QVQLQESGGGLVQAGGCLRLSCAASGSIFTYAVMGWYRQAHGKEHELVATIDTGSSTYYADSVKGRITISRDNAKNTLYLQMNSLKPEDTAVYYCAVNTYCRVRYRYWGQGTQVTVSS`
high polyreactivity

Request the reported polyreactivity (PSR sort gate) associated with `QVQLVESGGGLVQAGGSLRLSCAASGFTFANYVMGWSRQAPGKERELVAAITTPGGSTSYADSVKGRFTISRDNAKNTVYLQMNSLKPEDTAVYYCNKTTYYPSDYDYWGQGTQETVSS`
low polyreactivity

Request the reported polyreactivity (PSR sort gate) associated with `QVQLVESGGGLVQAGGSLRISCAPSGSTFPHNAMGWYRQAPGKERELVAAISSIGVRTYYADSVKGRFTISRDNAKNTVYLQMNSLKPEDTAVYYCAAEYDGPYTWVEYYYHYGYWGQGTQVTVSS`
high polyreactivity

Request the reported polyreactivity (PSR sort gate) associated with `QVQLVESGGGLVQAGGSLRLSCAASGRIFGPNAMGWYRQAPGKERELVAAITGSGGSTYADSVKGRFTISRDNAKNTVYLQMNSLKREDTAVYYCAKKTWYSYYWGQGTQVTVSS`
high polyreactivity

Request the reported polyreactivity (PSR sort gate) associated with `QVQLVESGGGLVQAGGSLRLSCAASGSTFWSYAMGWYRQAPGKERELVAAITSGGRTYYADSVKGRFTISRDNAKNTVYLQMNSLKPEDTAVYYCNAVVRHTYRRFDYWGQGTQVTVSS`
high polyreactivity

Request the reported polyreactivity (PSR sort gate) associated with `QVQLVESGGGLVQAGGSLRLSCAASGNTFNKYAMGWYRQAPGKERELVAAISYSGGSTYYADSVKGRFTISRDNAKNTVYLQMNSLKPEDTAVYYCNAVYYVYPRRYDYWGQGTQVSVSS`
high polyreactivity

Request the reported polyreactivity (PSR sort gate) associated with `QVQLVESVGGLVQAGGSLRLSCAASGSIFYNYAMGWYRQAPGKERELVAAISSNGGSTYYADSVKGRFTISRDIAKNTVYLQMNSLKPEDTAVYYCAARYWYPYWYRYSAYDYWGQGTQVTVSS`
high polyreactivity

Below are some sequences; for each one, tell me its polyreactivity (PSR sort gate).
1. QVQLVESGGGLVQAGGSLRLSCAASGIIFNSNAMGWYRQAPGKERELVAAISVSGGSTYYADSVKGRFTISRDNAKNTVYLQMNILKPEDTAVYYCAAVFYYWSLRSYYWGQGTQVTVSS
2. QVQIVESWGGLVQAGGSLRVSCATSGGIFRFNAMGSYRHAPGKERELVAAITSSVGSTYYADSVKGRFTFSRDNAKNTVDLQLNSLKPEDTAVDDCAAVITRVAIVFSTEYDYWGQGTQVTVSS
3. QVQLVESGGGLVQAGGSLRLSCAASGFTYSRYAMGWYRQAPGKERELVAAIRLRDGITYYADSVKGRITISRDNAKNTVYLQMNRLKPEDTAVYYCNAVNRTPVSQLDYWGQGTQVTVSS
4. QVQLVESGGGLVQAGGSLRLTCAASGNIFYTYAMGWYRQPPGKERELVAGLSSDGSTTYADSVKGRFTISRDNAKNTVYLQMNSLNPEDTAVYYCPADITGILWYGYYYWGQGTQVTVSS
5. QVQLVETGGGLVQAGGSLSLSCAASGSTSSRYAMGWYRQAPGKEMELVARINWNGGSTYYADSVKGRFTISRDNAKNTVYLQMNSLKPEDTAVYYCAADSFGITYVSYVSIYDFDYWGQGTQLTVSS

["high polyreactivity", "low polyreactivity", "high polyreactivity", "low polyreactivity", "low polyreactivity"]

Below are some sequences; for each one, tell me its polyreactivity (PSR sort gate).
1. QVQLEESGGGLVQGGGSLRLSCAGSGRIFQLNAMGRYRQAPGIERELVADIRWSSGSTYYADTVKGRFTISRDNAKNSVYFQMYSLKPEDTAVYFCAGRVLYVHRQVYKMDYWGQGTQVTVSS
2. QVQLVESGGGLVQAGGSLRLSCAASGFTFNRYAMGWYRQAPGKERELVAAISWSGTSTYYADSVKGRFTISRDNAKNTVYLQMNSLKPEDPAVYYCAAYPALTGGLPKSRGYYWGQGTQVTVSS

["high polyreactivity", "high polyreactivity"]

Below are some sequences; for each one, tell me its polyreactivity (PSR sort gate).
1. QVQLVESGGGLVQAGGSLRLSCAASGLTFWWYAMGWYRQAPGKQRELVAGITGGGSTSYADSVKGRFTISRDNAKNTVYLQMNSLKPEDTAVYYCAASPYNGQRTWYKYFFLGDYWGQGTQVTVSS
2. QVQLVESGGGLVQAGGSLRLSCAASGSIFLVYGMGWYRQAPGKERELVAAITSSAGSTYYADSVKGRFTISRDNAKNTVYLQMNSLKPEDTAVYYCAARWAWSTYSYYYWGQGTQVTVSS
3. QVQLVESGGGLVQAGGSLRLSCAASGSIFSRNAMGWYRQAPGKERELVAAISYSSGSTYYADSVKGRFTISRDHAKNTVYLQMNSLTPEDTAVYYCAADTTKLQGVEGDYWGQGTQVTVSS
4. QVQLVESGGGLVQAGGSLRLSCAASGRTFATYMGWYRQAPGKERELVAGITRGGNTNYADSVKGRFTISRDNAKNTVYLQMNSLKPEDTAVYYCAKLKYRSHYSWGQGTQVTVSS

1. high polyreactivity
2. high polyreactivity
3. low polyreactivity
4. high polyreactivity

----------
Assay: yeast display, Sf9 membrane polyspecificity reagent, FACS + sequencing; frameworks hold sequencing errors
measured-parameter: polyreactivity (PSR sort gate)

Sample answers from the record:
Request the reported polyreactivity (PSR sort gate) associated with `QVQRVESVGGLVQAGGSLRFSCAASGSTFTANAMGWYRQAPGKEREFVAAITQSGGDTYYADSVKGRFTISRDNAKNTVYLQMNSLKPEDSEVYYCAAESAYFVALTHFYTVEFYYWGQGTQGTVSS`
low polyreactivity

Request the reported polyreactivity (PSR sort gate) associated with `QVQLVESGGGIVQAGGSLRLSCAASGSTIDYNAMGWYRQARGQERELVAAITSGGSTSYADSVKGRFTISRENAKNTVYLQMNSLKPEDTAGYYCAVKRYWLWWYDYWGQGTQVTVSS`
high polyreactivity

Request the reported polyreactivity (PSR sort gate) associated with `QVQLVESGGGLVQAGGSLRLSCAASGRIFFYYAMGWYRQAPGKERELVATITASGDSTYYADSVKGRFTISRDNAKNTVYLQMNSLKPEDTAVYYCAADDGDYYEVDYWGQGTQVTVSS`
low polyreactivity

Request the reported polyreactivity (PSR sort gate) associated with `QVQLVESGGGLVQAGGSLRLSCAASGRNFGDYAMGWYRQAPGKERELVAAISSSGGRTYYADSVKGRFTISRDNAKNTVYLQMNSLQPEDTAVYYCAAQSKYYQYYSWGQGTQVTVSS`
high polyreactivity

Request the reported polyreactivity (PSR sort gate) associated with `QVQLVESGGGIVQAGGSLRLSCAASGRTFNHYAMGWYRQAPGKERELVAAITNGGNTYYADSVKGRFTISRDNAKNTVYLQMNSLKPEDTAVYYCAKLYTDAIVWSAYDYWGQGTQVTVSS`
low polyreactivity

Request the reported polyreactivity (PSR sort gate) associated with `QVQLVESGGGLVQAGGSLSLSCAASGRNFAYYAMGWYRQAPGKERELVAGISQRGSRTYYADSVKGRFTISRDNAKNTVYLQMNSLKPEDTAVYYCAARDRRSVTMDYWGQGTQVTVSS`
high polyreactivity

Request the reported polyreactivity (PSR sort gate) associated with `QVQIVESGGGLVQAGGRLRLSCSASGSIFDWYDMGWYRQAPGKERELVAAITTGGITNYADSVKGRFTLSRDNAKNTVYLQMNSLKPEDTAVYYCAADSLGVYDGDYWGQGTQVTVSS`
low polyreactivity

Request the reported polyreactivity (PSR sort gate) associated with `QVQLVESAAGLVQAGGSLRLSCAASGRISHRNAMGWSRQAPGKERELVAAITSGGSTNYADSVKGRFTISRDNAKNTVYLQMNSLKPEDTAVYYCAARRLPSTWYIYWGQGTQVTVSS`
low polyreactivity

Below are some sequences; for each one, tell me its polyreactivity (PSR sort gate).
1. QVQLQESGGGLVQAGGSLRLSCAASGTIFRFRYMGWHRQAPVKERELVAGINGGTTTYYADSVIGRFTISRDNAKNTVYLQMNSLKADDTAVYNCAAGASRLTYYDYWGQGTQVTVSS
2. QVQLVESGGGLVQAGGSLRLSCDDSGFIFFDYAMGWYRQAPGKEREFVAAISTRGGSTYYADSVKGLFTISRDNAKNTVYLQMNSLKPEDTSVYYCNARTIRPWGENGYWGQGTQVSVSS
3. QVQLVESGGGLVQAGGSLRLSCAPSRSTLNYYAMGWYRQAPGKERELVAAITWSGGSTSYADSVKGRFTISRDNAKNTVYLQMNSLKPEDTAVYYCATDFPTVQLYDTDWLSSDMGYWGQGTQVTVSS
4. QVQLVESGGGLVQAGGSLRLSCAASGRIFSYNAMGWYRQAPGKERELVAAISSDGSTYYADSVKGRFTISRDNAKNTVYLQMNRLKPEDTAVYYCAAYPRVNGNIHSTGDYWGQGTQVTVSS

1. low polyreactivity
2. high polyreactivity
3. low polyreactivity
4. low polyreactivity
